- Study Target: Cholecystokinin receptor type A (Cavia porcellus, UniProt Q63931)
- Sequence (Q63931 whole entry): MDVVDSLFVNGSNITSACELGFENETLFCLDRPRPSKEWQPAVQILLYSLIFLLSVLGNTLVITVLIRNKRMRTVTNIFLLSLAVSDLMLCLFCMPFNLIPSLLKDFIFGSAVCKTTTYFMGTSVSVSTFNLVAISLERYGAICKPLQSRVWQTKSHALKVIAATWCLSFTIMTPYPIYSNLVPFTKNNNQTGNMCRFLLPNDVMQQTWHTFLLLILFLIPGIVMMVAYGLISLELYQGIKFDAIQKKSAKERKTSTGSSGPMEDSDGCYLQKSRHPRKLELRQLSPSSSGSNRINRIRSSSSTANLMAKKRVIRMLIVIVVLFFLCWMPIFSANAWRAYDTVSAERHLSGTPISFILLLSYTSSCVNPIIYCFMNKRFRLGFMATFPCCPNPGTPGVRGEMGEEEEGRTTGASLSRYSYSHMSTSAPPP
- Test Method Notes: Binding affinity towards Cholecystokinin type A receptor was determined in guinea pig pancreatic membranes using [125I]-BH-CCK-8 as radioligand
- Format: cell membranes
- Condition Context: read-out: IC50
Endpoint Name: pIC50
Keep in mind that pIC50 stands for -log10 of concentration in molar terms.

Check out these entries, answers already filled in.
CCCC[C@@H](C(=O)N[C@@H](CC(=O)O)C(=O)N[C@@H](Cc1ccccc1)C(N)=O)N(C)C(=O)[C@H](NC(=O)CNC(=O)[C@@H](Cc1ccccc1)NC(=O)[C@H](Cc1ccc(O)cc1)NC(=O)[C@@H](N)CC(=O)O)[C@H](C)c1c[nH]c2ccccc12 :: 5.07
CCCC[C@@H](C(=O)N[C@@H](CC(=O)O)C(=O)N[C@@H](Cc1ccccc1)C(N)=O)N(C)C(=O)[C@@H](NC(=O)CNC(=O)[C@@H](Cc1ccccc1)NC(=O)[C@H](Cc1ccc(O)cc1)NC(=O)[C@@H](N)CC(=O)O)[C@H](C)c1c[nH]c2ccccc12 :: 6.00

Task: Query: pIC50; subject: CCCC[C@@H](C(=O)N[C@@H](CC(=O)O)C(=O)N[C@@H](Cc1ccccc1)C(N)=O)N(C)C(=O)[C@H](NC(=O)CNC(=O)[C@@H](Cc1ccccc1)NC(=O)[C@H](Cc1ccc(O)cc1)NC(=O)[C@@H](N)CC(=O)O)[C@@H](C)c1c[nH]c2ccccc12
Output: 5.07

###

- Study Target: UniProt P97266
- Test Method Notes: Binding affinity towards Opioid receptor mu 1 was determined in guinea pig whole brain using [3H]CTOP radioligand
Endpoint Name: pIC50
Reminder that pIC50 means the negative base-10 logarithm of the concentration expressed in mol/L.

Task: Report pIC50 for CCCC[C@@H](C(=O)N[C@@H](CC(=O)O)C(=O)N[C@@H](Cc1ccccc1)C(N)=O)N(C)C(=O)[C@@H](NC(=O)CNC(=O)[C@@H](Cc1ccccc1)NC(=O)[C@H](Cc1ccc(O)cc1)NC(=O)[C@@H](N)CC(=O)O)[C@@H](C)c1c[nH]c2ccccc12 tested on UniProt P97266.
Output: 5.17

###

- Study Target: Mu-type opioid receptor (Cavia porcellus)
- Sequence (P97266 whole entry): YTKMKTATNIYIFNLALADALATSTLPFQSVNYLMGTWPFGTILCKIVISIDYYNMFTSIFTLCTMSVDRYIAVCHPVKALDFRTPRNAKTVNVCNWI
- Test Method Notes: Binding affinity towards Opioid receptor mu 1 was determined in guinea pig whole brain using [3H]CTOP radioligand
Endpoint Name: IC50 (µM)
Entry rule: numbers only, all in µM.

CCCC[C@@H](C(=O)N[C@@H](CC(=O)O)C(=O)N[C@@H](Cc1ccccc1)C(N)=O)N(C)C(=O)[C@H](Cc1c[nH]c2ccccc12)NC(=O)CNC(=O)[C@@H](Cc1ccccc1)NC(=O)[C@H](Cc1ccc(O)cc1)NC(=O)[C@@H](N)CC(=O)O :: 0.7

Then there is this compound:
Task: Query the reported IC50 for Mu-type opioid receptor (Cavia porcellus); item: CCCC[C@@H](C(=O)N[C@@H](CC(=O)O)C(=O)N[C@@H](Cc1ccccc1)C(N)=O)N(C)C(=O)[C@@H](NC(=O)CNC(=O)[C@@H](Cc1ccccc1)NC(=O)[C@H](Cc1ccc(O)cc1)NC(=O)[C@@H](N)CC(=O)O)[C@H](C)c1c[nH]c2ccccc12
Output: 3.05
